src = ChEMBL document CHEMBL1138798

Record: pKi reported on Acetylcholinesterase (Homo sapiens, UniProt P22303).
Sequence (P22303 whole entry): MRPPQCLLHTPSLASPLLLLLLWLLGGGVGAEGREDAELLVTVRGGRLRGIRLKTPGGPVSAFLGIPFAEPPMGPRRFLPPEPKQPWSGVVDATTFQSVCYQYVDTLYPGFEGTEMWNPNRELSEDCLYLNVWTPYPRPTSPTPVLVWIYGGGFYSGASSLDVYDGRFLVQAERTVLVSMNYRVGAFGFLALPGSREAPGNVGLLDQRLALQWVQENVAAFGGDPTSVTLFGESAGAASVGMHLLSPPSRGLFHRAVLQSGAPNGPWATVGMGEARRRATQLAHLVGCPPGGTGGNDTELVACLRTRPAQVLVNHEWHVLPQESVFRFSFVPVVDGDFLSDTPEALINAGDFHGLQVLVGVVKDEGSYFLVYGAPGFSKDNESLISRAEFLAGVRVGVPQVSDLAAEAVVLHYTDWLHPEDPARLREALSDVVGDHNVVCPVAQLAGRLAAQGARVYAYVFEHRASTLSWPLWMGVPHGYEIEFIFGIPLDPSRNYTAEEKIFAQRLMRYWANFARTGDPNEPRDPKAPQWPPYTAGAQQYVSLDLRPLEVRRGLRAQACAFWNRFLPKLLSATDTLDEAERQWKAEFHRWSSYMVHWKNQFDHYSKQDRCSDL
Kindly note that pKi refers to -log10 of the concentration in mol/L and answer with the value alone.

*Q* What pKi value was documented for this compound, COc1cc2cc(C3CC[N+](C)(Cc4ccccc4)CC3O)sc2cc1OC (centres undefined) ?
*A* 4.71

*Q* Can you look up the measured pKi of COc1ccc2cc(C(=O)CCC3CC[N+](C)(Cc4ccccc4)CC3)ccc2c1 (centres undefined) for me?
*A* 7.30

*Q* # pKi lookup, item "COc1cc2onc(CCC3CCN(Cc4ccccc4)CC3)c2cc1C"
*A* 8.24

*Q* I'd like to know its pKi. The compound in question is COc1cc2cc(C(=O)C3CCC[N+](C)(Cc4ccccc4)CC3)sc2cc1OC (centres undefined)
*A* 8.10
